tested on: Plasmodium falciparum; assay: GSK_TCMDC: Inhibition of Plasmodium falciparum Dd2 in whole red blood cells, using parasite LDH activity as an index of growth. Test compounds present at 2uM; assay type: functional
Assign class by Inhibition: not lower than 30% means met; lower than 30% means not met.

molecule=O=C(Nc1ccc(OCc2ccccc2)cc1)c1nc2ccccc2nc1Cl class_assignment=met
molecule=Cl.Cn1cc(Br)c(-c2cccc(Nc3ccnc4cc(-c5nccs5)ccc34)c2)n1 class_assignment=met
molecule=CC(=O)Nc1nc(C(=O)Nc2ccc(-c3cccc(-c4nc5cc(F)ccc5[nH]4)c3)cc2)cs1 class_assignment="not met"
molecule=CCN1CCC(N2CCC(C(=O)Nc3cccc(-c4cccc(Cl)c4)c3)CC2)CC1 class_assignment=met
molecule="CC(Nc1cc(-c2ccccn2)nc(-c2ccccn2)n1)c1ccccc1 (centres undefined)" class_assignment=met
molecule=CCN(CC)CCN(Cc1ccc(-c2ccc(C(F)(F)F)cc2)cc1)C(=O)Cn1c(CCc2cccc(F)c2F)nc(=O)c2sccc21.O=C(O)C(O)C(O)C(=O)O class_assignment=met
molecule=O=C(O)C(F)(F)F.O=S(=O)(NCCN1CCCC1)c1ccc(-c2cccc(CNC3Cc4ccccc4C3)c2)s1 class_assignment=met
molecule=c1ccc(CN2CCC(Nc3ccc(-c4c[nH]nc4-c4ccccn4)nc3)CC2)cc1 class_assignment="not met"
molecule=COc1ccc2ncc(F)c(CCN3CC[C@@H](CNCc4cc5c(cn4)OCS5)C3)c2n1.Cl class_assignment="not met"

----------
Reported Inhibition values for the following compounds.
test system: Plasmodium falciparum; assay: GSK_TCMDC: Inhibition of Plasmodium falciparum 3D7 in whole red blood cells, using parasite LDH activity as an index of growth. Test compounds present at 2uM; assay type: functional
Quantity measured: Inhibition (%)

compound=COc1ccc(-c2nc(NC(=O)CS(=O)(=O)c3ccc(OC)cc3)sc2C)cc1 reported_value=95
compound=COc1cc2nc(N3CCC(CNC(=O)c4cc(Br)c(Br)s4)CC3)nc(N)c2cc1OC.O=C(O)C(F)(F)F reported_value=100
compound=COCCNCc1cccc(-c2ccc(CNC3CCN(Cc4ccccc4)CC3)cc2)c1.O=C(O)C(F)(F)F reported_value=100
compound=C(=N\Nc1nccc2sc(-c3ccccc3)cc12)/c1cccnc1 reported_value=97
compound="CN(CCC(CCN1CCC(c2c[nH]c3ccccc23)CC1)c1ccccc1)C(=O)Nc1ccc(Cl)c(Cl)c1 (centres undefined)" reported_value=91
compound=O=C(C=Cc1ccc(-c2ccccc2)cc1)N1CCC(CCN2CCC(c3c[nH]c4ccccc34)CC2)CC1 reported_value=87
compound=COc1cc(Cc2cnc(N)nc2N)cc(OCCCCC#N)c1OC reported_value=86
compound=CCN1CCC(NCc2ccc(-c3ccc(Cl)s3)cc2)CC1 reported_value=96
compound=N#Cc1ccccc1Sc1ccccc1C(=O)Nc1ccc2ccccc2n1 reported_value=92
compound=CCCCCCN1CCCN(Cc2ccc(C(=O)Nc3ccc(CCC)cc3)cc2)CC1.O=C(O)C(F)(F)F reported_value=92
compound=COc1cccc(C=CC(=O)N(CCN)Cc2ccccc2)c1.O=C(O)C(=O)O reported_value=99
compound=CN1CCN(CCCN(Cc2csc(-c3ccc(CNCc4ccccc4)cc3)n2)S(=O)(=O)c2ccccc2)CC1.O=C(O)C(F)(F)F reported_value=99
compound=Cc1sc(CNCCCNc2cc(=O)c3ccccc3[nH]2)c(I)c1C.Cl reported_value=94
compound=O=C(Nc1ccc(Oc2cccnc2)cc1)C1CCN(Cc2cc(Cl)ccc2O)CC1 reported_value=83
compound=CCC(=C(CC)c1ccc(O)c(CNC2CCCCC2)c1)c1ccc(O)c(CNC2CCCCC2)c1.Cl reported_value=100
compound=CC(=O)Nc1ncc(C(=O)Nc2cccc(-c3cccc(-c4nc5cc(F)ccc5[nH]4)c3)c2)s1 reported_value=100
compound="CC(Sc1nnc(-c2cccs2)[nH]1)C(=O)c1c[nH]c2ccccc12 (centres undefined)" reported_value=94
compound=COC(=O)c1cccc(CN(CCC(O)(C(F)(F)F)C(F)(F)F)C(=O)CC2CCCC2)c1 reported_value=98
compound=O=C(/C=C/c1ccc(Cl)cc1)NCCCCCN1CCC(C(=O)Nc2ccc(Cl)c(Cl)c2)CC1 reported_value=100

----------
Quick list: Inhibition per entry.
test system: HepG2; test: GSK_TCMDC: Percent inhibition of human HepG2 cell line. Test compounds present at 10uM.; assay type: functional
Quantity measured: Inhibition (%)

compound="CC1=C(C(=O)Nc2ccc(Cl)cc2)C(c2ccncc2)n2nc(C(F)(F)F)nc2N1 (stereo not given)" unit_text=% reported_value=25
compound="Nc1c(Cl)cc(C(O)CNCCCCCCOCCC=C2CCOCC2)cc1Cl (stereo not given)" unit_text=% reported_value=7
compound=CN(C)CCOc1ccc(-c2cc(-c3ccc(Cl)c(O)c3)c(-c3ccnc(N)n3)o2)cc1 unit_text=% reported_value=43
compound="CCN(CC)CCCC(C)Nc1ccnc2ccc(OC)cc12.Cl.O (stereo not given)" unit_text=% reported_value=7
compound="CCCCCCCn1c(=N)n(CC(O)c2ccc(Cl)c(Cl)c2)c2ccccc21.Cl (stereo not given)" unit_text=% reported_value=99
compound=CC(=O)c1c(CC(=O)O)c2ccccc2n1O unit_text=% reported_value=16
compound=O=C(NCCc1ccc(F)cc1)c1ccc(N2CCN(c3ccncc3)CC2)nc1.O=C(O)C(F)(F)F unit_text=% reported_value=1
compound=CCOC(=O)N[C@@H]1CN[C@@H](C#Cc2cc3c(Nc4ccc(OCc5cccc(F)c5)c(Cl)c4)ncnc3s2)C1 unit_text=% reported_value=8
compound=O=C(NC1CCCCCC1)[C@@H]1CCCN1C(=O)c1ccc(O)c(-c2ccc(Cl)c(Cl)c2)c1 unit_text=% reported_value=0
compound="Cc1cccc2nc(-c3ccc(-c4ccc(NC(=O)C(C)CN(C)C)cc4)s3)[nH]c12 (stereo not given)" unit_text=% reported_value=23

----------
test system: HepG2; test: GSK_TCMDC: Percent inhibition of human HepG2 cell line. Test compounds present at 10uM.; format: functional
Heads up, the class ranges for Inhibition are low (below 9%), middle (9% to below 20%), high (20% or more)

molecule=Cc1cccc2nc(-c3cccc(-c4ccc(CN5CCC(C(N)=O)CC5)cc4)c3)[nH]c12.O=C(O)C(F)(F)F class_assignment=low
molecule=Fc1cccc(C=NN=c2cc[nH]c3ccc(C(F)(F)F)cc23)c1 class_assignment=low
molecule="CCNc1cc(C(=O)N[C@@H](Cc2ccccc2)[C@H](O)CNC(CC)c2cccc(Cl)c2)cc(N2CCCCS2(=O)=O)c1.Cl (stereo partly specified)" class_assignment=middle
molecule=COC(=O)CCCCCOc1cc(Cc2cnc(N)nc2N)cc(OC)c1OC class_assignment=low
molecule=COc1ccc(CNc2nc(NCc3ccccc3)c3cc(OC)c(OC)cc3n2)cc1OC class_assignment=high
molecule=O=C(Nc1cccc(-c2nn3ccccc3c2-c2ccnc(Nc3cccc(N4CCCC4=O)c3)n2)c1)c1cc(F)ccc1F class_assignment=high
molecule=COc1cc2nc(NCCc3ccccc3)nc(NCc3cnn(C)c3C)c2cc1OC class_assignment=middle
molecule="COc1ccc(N2CCN(C(CNC(=O)C3CCCCC3)c3ccc4c(c3)OCO4)CC2)cc1 (stereo unspecified)" class_assignment=low
molecule=CN1CCC(C(=O)N(Cc2ccc(-c3ccc(CNCCc4ccccc4)cn3)cc2)C2Cc3ccccc3C2)CC1.O=C(O)C(F)(F)F class_assignment=high
molecule=COc1ccc2nccc([C@@H](O)CN3CCC(NC(=O)/C=C/c4cc(F)cc(NC(C)=O)c4)CC3)c2c1 class_assignment=low
molecule=COc1ccccc1NC(=S)N/N=C/c1ccc(O)cc1O class_assignment=high
molecule=Cl.O=C(O)CCCN1CCCC(=C(c2ccccc2)c2ccccc2)C1 class_assignment=low
molecule="CCCC(CNCc1cccc(OCC)c1)CNc1cc(=O)c2ccccc2[nH]1 (stereo unspecified)" class_assignment=low
molecule=Cc1cc(C2CCN(CCCCNC(=O)c3ccc(NC(=O)c4ccc(Cl)cc4)cc3)CC2)c(C)cc1OCc1cccnc1 class_assignment=high
molecule=Cc1nnnn1-c1ccc(C(=O)N2CCC3(CC2)CN(Cc2ccc(Cl)c(Cl)c2)C(=O)O3)cc1 class_assignment=low
molecule=FC(F)(F)c1ccc(N2CCCN(Cc3cccc(-c4ccccc4CNCc4ccc5c(c4)OCO5)c3)CC2)nc1.O=C(O)C(F)(F)F class_assignment=high
molecule=O=C(Nc1cccc(CN2CCCN(Cc3ccc(O)cc3)CC2)c1)c1cc(F)cc(F)c1.O=C(O)C(F)(F)F class_assignment=middle
molecule=COC(=O)C(=C(C)C)N1C(=O)[C@@H](NC(=O)OCc2ccccc2)[C@H]1SS[C@@H]1[C@H](NC(=O)OCc2ccccc2)C(=O)N1C(C(=O)OC)=C(C)C class_assignment=middle
molecule=Cc1cc(C(F)(F)F)cc(-n2ncc(-c3ccc(C(=O)NCc4ccccc4N)cc3)c2N)n1.O=C(O)C(F)(F)F class_assignment=middle
molecule=CN(C)C(=S)N/N=C1/C(=O)Nc2ccc(OC(F)(F)F)cc21 class_assignment=high
molecule=COc1ccc(C(=O)Nc2ccc(-c3nc4cc(C)ccc4[nH]3)cc2)cc1OC class_assignment=high
molecule=Cc1ccccc1NC(=O)NC1CCN(CCCCCNC(=O)/C=C/c2ccc(Cl)c(Cl)c2)CC1 class_assignment=middle
molecule=O=C(O)C(F)(F)F.c1cc(CN2CCCCC2)cc(-c2ccc(-c3nc4ccccc4[nH]3)s2)c1 class_assignment=middle
molecule=CC(C)(C)NCc1cc(Nc2ccnc3cc(Cl)ccc23)ccc1F class_assignment=high
molecule="O=C(O)C(F)(F)F.OC1(c2ccccc2)CCN(Cc2cccc(-c3c[nH]c4nc(NC5CCCC5)ncc34)c2)C1 (stereo unspecified)" class_assignment=high
molecule=CCCN(CCC)CCCNc1ccc(C(=O)Nc2ccc(C)c(F)c2)cc1[N+](=O)[O-] class_assignment=high
molecule="O=C(Nc1ccc(OC2CCN(Cc3ccc(F)cc3)C2)cc1)c1cccs1.O=C(O)C(F)(F)F (stereo unspecified)" class_assignment=low
molecule=CCCCC(=O)Nc1cc(=O)[nH]c2nc(-c3ccc(Cl)cc3)nn12 class_assignment=low
molecule="COc1ccc(-n2ncc(C(=O)N3CCC4(C3)C(=O)N(c3ccccc3)c3ccccc34)c2C)cc1 (stereo unspecified)" class_assignment=high
molecule=c1cncc(Oc2ccc(Nc3ccnc4cc(-c5cccc(CN6CCCCC6)c5)ccc34)cc2)c1 class_assignment=high
molecule=COc1ccc(Cn2c(=O)[nH]c3cc(C(=O)NC4CCN(Cc5ccccc5)CC4)ccc3c2=O)cc1 class_assignment=middle
molecule=FC(F)(F)c1ccc2[nH]ccc(=NN=Cc3ccccc3)c2c1 class_assignment=low
molecule=COc1ccccc1CCNc1nccc(N[C@@H](Cc2ccccc2)C(=O)NCc2cccs2)n1.O=C(O)C(F)(F)F class_assignment=high
molecule=COc1ccc(S(=O)(=O)NC2CCN(c3ccc(C(F)(F)F)cc3NC(=O)OCC(C)C)CC2)cc1 class_assignment=middle
